system: CCRF-HSB2; experiment: selective drug sensitivity score (sDSS, relative to normal bone marrow) (sDSS (score)); higher = more potent and effective on the cell line relative to normal bone marrow cells; settings: 72 h;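 further: ALL cell lines in 384-well plates, five doses spanning 10,000-fold, each plate scaled between vehicle and 100 µmol/L benzalkonium chloride controls, sDSS an adapted area-under-curve metric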
Hi there, I'd appreciate the recorded selective drug sensitivity score for every entry that follows.
// return a plain number; no unit text

Report selective drug sensitivity score, nothing else, for this compound: CCc1nc(C(N)=O)c(Nc2ccc(N3CCC(N4CCN(C)CC4)CC3)c(OC)c2)nc1NC1CCOCC1 [Gilteritinib] (top concentration 1000 nM)
0.08

Report selective drug sensitivity score, nothing else, for this compound: CCn1c(-c2nonc2N)nc2cnc(Oc3cccc(NC(=O)c4ccc(OCCN5CCOCC5)cc4)c3)cc21 (top concentration 10000 nM)
13.6

Report selective drug sensitivity score, nothing else, for this compound: Cc1cc(-c2nc(-c3ccc(OC(F)(F)F)cc3)no2)nn1Cc1ccnc(N2CCN(C3CC3)CC2)c1 [BAY_87-2243] (top concentration 1000 nM)
14.9

Report selective drug sensitivity score, nothing else, for this compound: C=CC(=O)N1CCC(Oc2cc3c(Nc4ccc(Cl)c(Cl)c4F)ncnc3cc2OC)CC1 [Poziotinib] (top concentration 1000 nM)
3.68

Report selective drug sensitivity score, nothing else, for this compound: O=C1c2c(O)ccc(O)c2C(=O)c2c(NCCNCCO)ccc(NCCNCCO)c21 [Mitoxantrone] (top concentration 1000 nM)
14.2

Report selective drug sensitivity score, nothing else, for this compound: Oc1ncnc2[nH]ncc12 [Allopurinol] (top concentration 10000 nM)
-0.64

Reference source for all entries: the supplement of paper PMC8967900
